Cited source for all entries: PubChem BioAssay

- ASSAY OVERVIEW: basal HepG2 mitochondrial membrane potential changes, profiling panel, cell-based, JC-1 fluorescence, 24 h, 100 nL compound (AID 1167); further: test concentration not given here
- TEST PARAMETERS: higher = more signal
Binary call on z-score: 1 (yes) from 0.9 upward, 0 (no) beneath that.

[
  {
    "COMPOUND": "COCCOC(=O)N1C(=O)[C@@]2(c3ccccc31)[C@H](C(=O)Nc1nc3ccccc3s1)[C@H]1C(=O)O[C@H](c3ccccc3)[C@H](c3ccccc3)N1[C@@H]2c1ccc(O)cc1",
    "ASSIGNED CLASS": "0 (no)"
  },
  {
    "COMPOUND": "CC(C)[C@@H](C(=O)O)n1cc(-c2ccccn2)nn1",
    "ASSIGNED CLASS": "0 (no)"
  },
  {
    "COMPOUND": "C[N+](C)(C)CCCCNC(=O)[C@@H]1C[C@@H]2C(=O)NCC(=O)N2[C@@H]1c1cccc(OCCO)c1",
    "ASSIGNED CLASS": "1 (yes)"
  },
  {
    "COMPOUND": "C=CCNC(=O)[C@@H]1[C@H]2C(=O)O[C@H](c3ccccc3)[C@H](c3ccccc3)N2[C@H](c2ccc(O)cc2)[C@@]12C(=O)N(C(=O)OCCOC)c1ccc(C#Cc3ccc(OC)cc3)cc12",
    "ASSIGNED CLASS": "0 (no)"
  },
  {
    "COMPOUND": "CC(C)(C)OC(=O)CC[C@]1(C(=O)NCc2ccccc2)N=C(c2ccc(OCCCO)cc2)O[C@H]1c1ccccc1N=[N+]=[N-]",
    "ASSIGNED CLASS": "1 (yes)"
  },
  {
    "COMPOUND": "CO[C@H]1O[C@H](CO)[C@@H](OC(=O)CCc2ccccc2)[C@@H]2OC(=O)[C@H](Cc3ccccc3)C/C=C/C[C@@H](Cc3ccccc3)C(=O)O[C@@H]12",
    "ASSIGNED CLASS": "0 (no)"
  },
  {
    "COMPOUND": "O=C1O[C@H](c2ccccc2)[C@H](c2ccccc2)N2[C@H]1[C@@H](C(=O)NC[C@H](O)c1ccccc1)[C@]1(C(=O)Nc3ccc(C#CC4(O)CCCCCC4)cc31)[C@H]2c1ccc(O)cc1",
    "ASSIGNED CLASS": "0 (no)"
  },
  {
    "COMPOUND": "CC(C)[Si](C#C[Si](C(C)C)(C(C)C)C(C)C)(O[C@H](C)c1cn([C@H](C)c2ccccc2)nn1)C(C)C",
    "ASSIGNED CLASS": "1 (yes)"
  },
  {
    "COMPOUND": "C=C(COC)C(=O)CC[C@H](OC(=O)c1ccccc1-c1ccccc1C(=O)O)c1ccccc1OCCO",
    "ASSIGNED CLASS": "0 (no)"
  },
  {
    "COMPOUND": "C=C1C=C(Br)C2(OCCCO2)[C@H]2OC12 (stereo partly drawn)",
    "ASSIGNED CLASS": "0 (no)"
  },
  {
    "COMPOUND": "[N-]=[N+]=NCc1ccccc1C[C@]1(C(=O)NCc2ccccc2)N=C(c2ccc(OCCCO)cc2)O[C@H]1c1ccccc1",
    "ASSIGNED CLASS": "0 (no)"
  },
  {
    "COMPOUND": "O=C1O[C@H](c2ccccc2)[C@H](c2ccccc2)N2[C@H]1[C@@H](C(=O)Nc1nc3ccccc3s1)[C@]1(C(=O)Nc3ccc(C#CCCO)cc31)[C@H]2c1ccccc1OCCO",
    "ASSIGNED CLASS": "0 (no)"
  },
  {
    "COMPOUND": "COCCCNC(=O)[C@@]1(Cc2ccccc2CN=[N+]=[N-])COC(c2ccc(OCCCO)cc2)=N1",
    "ASSIGNED CLASS": "0 (no)"
  },
  {
    "COMPOUND": "CN1C=C(C(=O)OCCS(C)(=O)=O)C(C(=O)OCCS(C)(=O)=O)=CC(CCCO)=CC1c1cccs1 (stereo not drawn)",
    "ASSIGNED CLASS": "1 (yes)"
  },
  {
    "COMPOUND": "COC(=O)c1c2oc(c1C(=O)OC)C(=O)N[C@@H](C(C)C)Cn1nncc1C1(CCCCC1)NC(=O)N[C@H](CO)CC2",
    "ASSIGNED CLASS": "1 (yes)"
  },
  {
    "COMPOUND": "C=C[C@H](OC)[C@@H](OC(=O)Nc1ccc(OC)cc1)c1ccc(OC)c(O)c1",
    "ASSIGNED CLASS": "0 (no)"
  },
  {
    "COMPOUND": "COc1ccc([Si](C)(C)[C@H]2[C@H](CCO)O[C@@]3(C(=O)N(Cc4ccc(N5C(=O)c6cccc7cccc5c67)cc4)c4ccccc43)[C@@H]2C)cc1",
    "ASSIGNED CLASS": "0 (no)"
  },
  {
    "COMPOUND": "COC(=O)C1=CC(c2ccc(CO)cc2)=CC(C2CC2)N(C)C=C1C(=O)OC (stereo not drawn)",
    "ASSIGNED CLASS": "1 (yes)"
  },
  {
    "COMPOUND": "C=CCC(OC(C)=O)[C@@H]1[C@@H](N(Cc2cc3ccccc3o2)C(=O)c2ccc(-c3ccccc3)cc2)c2cc(OCCCO)ccc2N1C(=O)c1ccc(-c2ccccc2)cc1 (stereo partly drawn)",
    "ASSIGNED CLASS": "1 (yes)"
  },
  {
    "COMPOUND": "COCCOC(=O)N1C(=O)[C@@]2(c3cc(C#CCNC(N)=O)ccc31)[C@H](c1ccccc1OCCO)N1[C@H](c3ccccc3)[C@H](c3ccccc3)OC(=O)[C@H]1[C@@H]2C(=O)Nc1nc2ccccc2s1",
    "ASSIGNED CLASS": "0 (no)"
  }
]
